Experimental Details: DRUGMATRIX: Calcium Channel Type L, Phenylalkylamine radioligand binding (ligand: [3H] (-)-Desmethoxyverapamil (D-888))
Assay type: cell membranes, Rattus norvegicus, Wistar, Brain, Membrane
Reported Conditions: Not Active = under 50% inhibition at 10 µM
Measurement Kind: IC50

Compound: O=C1C(CC[S+]([O-])c2ccccc2)C(=O)N(c2ccccc2)N1c1ccccc1 (centres undefined) [SULFINPYRAZONE]
Endpoint Result: Not Active

Compound: CCn1cc(C(=O)O)c(=O)c2cnc(N3CCCC3)nc21 [PIROMIDIC ACID]
Endpoint Result: Not Active

Compound: C[C@@H](CO)NC(=O)[C@@H]1C=C2c3cccc4[nH]cc(c34)C[C@H]2N(C)C1 [ERGONOVINE]
Endpoint Result: Not Active

Compound: CC(=O)[C@@]1(O)CC[C@H]2[C@@H]3CCC4=CC(=O)CC[C@]4(C)[C@H]3CC[C@@]21C [HYDROXYPROGESTERONE]
Endpoint Result: Not Active
